Just for reference, paper doi:10.1101/2020.10.21.349050 is where these values come from.

Listed binders paired with reported Kd
study-target: T1, GST-Swi6 (Schizosaccharomyces pombe, UniProt P40381 1-328)
T1 sequence: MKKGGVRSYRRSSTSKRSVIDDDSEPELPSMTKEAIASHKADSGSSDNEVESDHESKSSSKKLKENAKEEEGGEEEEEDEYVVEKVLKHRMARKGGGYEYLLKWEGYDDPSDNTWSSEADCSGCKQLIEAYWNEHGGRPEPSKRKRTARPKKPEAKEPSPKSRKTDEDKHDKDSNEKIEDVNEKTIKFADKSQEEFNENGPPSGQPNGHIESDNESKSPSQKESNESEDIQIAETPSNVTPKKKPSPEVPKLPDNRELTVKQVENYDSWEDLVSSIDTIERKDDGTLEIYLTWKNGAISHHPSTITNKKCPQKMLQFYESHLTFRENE
assay-procedure: EMSA
Express your answer in nM, writing the number without its unit.

Problem: Value lookup for Kd; key = D-For RNA-DNA hybrid (DNA:RNA) RNA: UGGAUUAAGGAGAAGCGGUA DNA: TACCGCTTCTCCTTAATCCA
Result: 80

Problem: Value lookup for Kd; key = UGGAUUAAGGAGAAGCGGUA (ssRNA) [D-For RNA]
Result: 2450
